target.of.assay: Gamma-secretase
test.description: Modulation of gamma-secretase (unknown origin)
Assay type: protein-complex assay, Homo sapiens
value.kind: pIC50
Answer as the number alone; pIC50 is minus log10 of concentration in mol/L.

Input: Look up pIC50 for this molecule: COc1cc(C(=O)NCc2cccc(-c3ccccc3)c2)ccc1-n1cnc(C)c1
Output: 6.80

---

So I've got a bunch of compounds here, and I need their metabolised at […], 1 µM values.
test.description: Drug metabolism in human liver microsomes at 1 uM after 15 mins
Assay type: ADME, Microsome
condition.description: read-out: Drug metabolism
I only need the number, in %, no unit after it.

Input: Look up metabolised at […], 1 µM for this compound: COc1cc(-c2nc3n(n2)CCO[C@H]3c2ccccc2C(F)(F)F)ccc1-n1cnc(C)c1
Output: 5

Input: Look up metabolised at […], 1 µM for this compound: COc1cc(-c2nc3n(n2)CCC[C@H]3c2ccc(F)cc2C)ccc1-n1cnc(C)c1
Output: 41

Input: Look up metabolised at […], 1 µM for this compound: COc1cc(-c2nc3n(n2)CCC[C@H]3c2ccccc2C(F)(F)F)ccc1-n1cnc(C)c1
Output: 13

Input: Look up metabolised at […], 1 µM for this compound: COc1nc(-c2nc3n(n2)CCC[C@H]3c2ccccc2C(F)(F)F)ccc1-n1cnc(C)c1
Output: 10

---

test.description: Plasma concentration in mouse at 30 mg/kg, po after 4 hrs
Format: ADME, organism-based
Parameters: dose 30 mg/kg, route oral
So I've got a bunch of molecules here, and I need their concentration at 4 h values.
I only need the number, in µM, no unit after it.

Input: Look up concentration at 4 h for this molecule: COc1cc(-c2nc3n(n2)CCO[C@H]3c2ccccc2C(F)(F)F)ccc1-n1cnc(C)c1
Output: 3.6

Input: Look up concentration at 4 h for this molecule: COc1cc(C(=O)NCc2cccc(-c3ccccc3)c2)ccc1-n1cnc(C)c1
Output: 11.9

Input: Look up concentration at 4 h for this molecule: COc1nc(-c2nc3n(n2)CCC[C@H]3c2ccccc2C(F)(F)F)ccc1-n1cnc(C)c1
Output: 12.3

Input: Look up concentration at 4 h for this molecule: COc1cc(-c2nc3n(n2)CCC[C@H]3c2ccccc2C(F)(F)F)ccc1-n1cnc(C)c1
Output: 9.7

Input: Look up concentration at 4 h for this molecule: COc1cc(-c2nc3n(n2)CCC[C@H]3c2ccc(F)cc2C)ccc1-n1cnc(C)c1
Output: 9.8

---

test.description: Fraction unbound in rat brain
Assay type: ADME, tissue-based
value.kind: fraction unbound

Input: Look up fraction unbound for this compound: COc1nc(-c2nc3n(n2)CCC[C@H]3c2ccccc2C(F)(F)F)ccc1-n1cnc(C)c1
Output: 0.022

Input: Look up fraction unbound for this compound: COc1cc(-c2nc3n(n2)CCC[C@H]3c2ccc(F)cc2C)ccc1-n1cnc(C)c1
Output: 0.0092

---

test.description: Plasma concentration in dog at 20 mg/kg, po after 8 hrs
Type: ADME, organism-based, Canis lupus familiaris
Design: dose 20 mg/kg, route oral
value.kind: concentration at 8 h (µM)
I only need the number, in µM, no unit after it.

Input: Look up concentration at 8 h for this compound: COc1nc(-c2nc3n(n2)CCC[C@H]3c2ccccc2C(F)(F)F)ccc1-n1cnc(C)c1
Output: 19

---

target.of.assay: Cytochrome P450 2C9 (Homo sapiens, UniProt P11712)
Sequence (P11712 whole entry): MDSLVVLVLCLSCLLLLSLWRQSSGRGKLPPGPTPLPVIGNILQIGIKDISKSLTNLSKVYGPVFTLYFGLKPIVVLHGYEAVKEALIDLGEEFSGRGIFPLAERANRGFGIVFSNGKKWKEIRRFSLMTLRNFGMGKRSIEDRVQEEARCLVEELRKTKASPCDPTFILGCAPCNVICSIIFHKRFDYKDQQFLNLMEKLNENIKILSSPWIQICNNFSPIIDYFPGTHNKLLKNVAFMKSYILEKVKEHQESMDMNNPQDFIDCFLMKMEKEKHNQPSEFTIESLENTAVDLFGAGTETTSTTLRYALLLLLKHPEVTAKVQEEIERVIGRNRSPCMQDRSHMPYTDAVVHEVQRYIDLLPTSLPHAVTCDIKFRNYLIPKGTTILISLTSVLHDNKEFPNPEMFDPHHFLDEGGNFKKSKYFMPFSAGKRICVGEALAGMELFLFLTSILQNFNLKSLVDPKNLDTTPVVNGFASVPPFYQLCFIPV
value.kind: IC50 (µM)
I only need the number, in µM, no unit after it.

Input: Look up IC50 for this molecule: COc1cc(-c2nc3n(n2)CCO[C@H]3c2ccccc2C(F)(F)F)ccc1-n1cnc(C)c1
Output: 8.43

---

Test system: Mus musculus
test.description: Effect in mouse assessed as increase of amyloid beta 38 level at 30 mg/kg, po after 4 hrs by ELISA
value.kind: Increase % at 30 mg/kg (%)
I only need the number, in %, no unit after it.

Input: Look up Increase % at 30 mg/kg for this molecule: COc1cc(-c2nc3n(n2)CCO[C@H]3c2ccccc2C(F)(F)F)ccc1-n1cnc(C)c1
Output: 17

Input: Look up Increase % at 30 mg/kg for this molecule: COc1cc(-c2nc3n(n2)CCC[C@H]3c2ccccc2C(F)(F)F)ccc1-n1cnc(C)c1
Output: 44

Input: Look up Increase % at 30 mg/kg for this molecule: COc1cc(-c2nc3n(n2)CCC[C@H]3c2ccc(F)cc2C)ccc1-n1cnc(C)c1
Output: 59

Input: Look up Increase % at 30 mg/kg for this molecule: COc1nc(-c2nc3n(n2)CCC[C@H]3c2ccccc2C(F)(F)F)ccc1-n1cnc(C)c1
Output: 66

---

test.description: Ratio of drug level in brain to plasma in mouse at 30 mg/kg, po after 4 hrs
Format: ADME, organism-based
Set-up: dose 30 mg/kg, route oral
condition.description: read-out: BPR
value.kind: Kp at 4 h
Format: numeric value only, no unit, no commentary.

Input: Look up Kp at 4 h for this compound: COc1cc(C(=O)NCc2cccc(-c3ccccc3)c2)ccc1-n1cnc(C)c1
Output: 0.22

Input: Look up Kp at 4 h for this compound: COc1nc(-c2nc3n(n2)CCC[C@H]3c2ccccc2C(F)(F)F)ccc1-n1cnc(C)c1
Output: 0.23

Input: Look up Kp at 4 h for this compound: COc1cc(-c2nc3n(n2)CCC[C@H]3c2ccccc2C(F)(F)F)ccc1-n1cnc(C)c1
Output: 1.29

Input: Look up Kp at 4 h for this compound: COc1cc(-c2nc3n(n2)CCO[C@H]3c2ccccc2C(F)(F)F)ccc1-n1cnc(C)c1
Output: 0.93

Input: Look up Kp at 4 h for this compound: COc1cc(-c2nc3n(n2)CCC[C@H]3c2ccc(F)cc2C)ccc1-n1cnc(C)c1
Output: 0.5

---

So I've got a bunch of compounds here, and I need their pIC50 values.
target.of.assay: UniProtKB P33261
Sequence (P33261 whole entry): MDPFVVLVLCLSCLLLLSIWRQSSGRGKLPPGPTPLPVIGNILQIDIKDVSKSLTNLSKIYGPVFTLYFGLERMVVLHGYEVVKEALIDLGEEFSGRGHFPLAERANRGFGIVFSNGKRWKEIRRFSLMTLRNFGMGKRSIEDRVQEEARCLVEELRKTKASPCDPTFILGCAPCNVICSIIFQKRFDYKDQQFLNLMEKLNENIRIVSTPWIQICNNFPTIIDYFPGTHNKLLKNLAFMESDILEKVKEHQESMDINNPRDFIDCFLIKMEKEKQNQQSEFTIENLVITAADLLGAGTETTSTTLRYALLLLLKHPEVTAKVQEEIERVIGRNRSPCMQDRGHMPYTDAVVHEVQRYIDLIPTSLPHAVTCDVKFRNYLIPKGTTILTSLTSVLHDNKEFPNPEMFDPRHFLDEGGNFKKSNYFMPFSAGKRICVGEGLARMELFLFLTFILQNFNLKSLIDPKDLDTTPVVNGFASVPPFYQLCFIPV
Answer as the number alone; pIC50 is minus log10 of concentration in mol/L.

Input: Look up pIC50 for this compound: COc1cc(-c2nc3n(n2)CCO[C@H]3c2ccccc2C(F)(F)F)ccc1-n1cnc(C)c1
Output: 5.82

Input: Look up pIC50 for this compound: COc1cc(-c2nc3n(n2)CCC[C@H]3c2ccc(F)cc2C)ccc1-n1cnc(C)c1
Output: 5.03

---

Reported IC50, Voltage-gated inwardly rectifying potassium channel KCNH2 (Homo sapiens, UniProt Q12809).
I only need the number, in µM, no unit after it.

Input: Look up IC50 for this molecule: COc1cc(-c2nc3n(n2)CCC[C@@H]3c2ccc(F)cc2C)ccc1-n1cnc(C)c1
Output: 0.794

Input: Look up IC50 for this molecule: COc1cc(-c2nc3n(n2)CCC[C@H]3c2ccc(F)cc2C)ccc1-n1cnc(C)c1
Output: 7.9

---

test.description: Drug metabolism in mouse liver microsomes at 1 uM after 15 mins
Assay type: ADME, Microsome
condition.description: read-out: Drug metabolism
So I've got a bunch of compounds here, and I need their metabolised at […], 1 µM values.
I only need the number, in %, no unit after it.

Input: Look up metabolised at […], 1 µM for this compound: COc1cc(-c2nc3n(n2)CCC[C@H]3c2ccc(F)cc2C)ccc1-n1cnc(C)c1
Output: 9

Input: Look up metabolised at […], 1 µM for this compound: COc1cc(-c2nc3n(n2)CCO[C@H]3c2ccccc2C(F)(F)F)ccc1-n1cnc(C)c1
Output: 6

Input: Look up metabolised at […], 1 µM for this compound: COc1nc(-c2nc3n(n2)CCC[C@H]3c2ccccc2C(F)(F)F)ccc1-n1cnc(C)c1
Output: 6

Input: Look up metabolised at […], 1 µM for this compound: COc1cc(-c2nc3n(n2)CCC[C@H]3c2ccccc2C(F)(F)F)ccc1-n1cnc(C)c1
Output: 7

---

target.of.assay: Gamma-secretase
test.description: Modulation of gamma-secretase (unknown origin) assessed as reduction of amyloid beta 42 level
Type: protein-complex assay, Homo sapiens
value.kind: log10 IC50 (log10 of the value in nM)
On a log10 scale: recorded IC50, unit nM.

Input: Look up log10 IC50 for this compound: COc1cc(-c2nc(-c3ccc(F)cc3)nn2C)ccc1-n1cnc(C)c1
Output: 3.76

Input: Look up log10 IC50 for this compound: COc1cc(-c2nc3n(n2)CCC[C@H]3c2ccc(F)cc2C)ccc1-n1cnc(C)c1
Output: 1.60

Input: Look up log10 IC50 for this compound: COc1cc(-c2nc(Cc3ccc(F)cc3)n(C)n2)ccc1-n1cnc(C)c1
Output: 2.93

Input: Look up log10 IC50 for this compound: COc1cc(-c2nc(-c3ccc(F)cc3)n(C)n2)ccc1-n1cnc(C)c1
Output: 2.79

Input: Look up log10 IC50 for this compound: COc1cc(-c2nnc(-c3ccc(F)cc3)[nH]2)ccc1-n1cnc(C)c1
Output: 3.11

Input: Look up log10 IC50 for this compound: COc1cc(-c2nc3n(n2)CCO[C@H]3c2ccccc2C(F)(F)F)ccc1-n1cnc(C)c1
Output: 1.85

Input: Look up log10 IC50 for this compound: COc1cc(-c2nc3n(n2)CCC[C@H]3c2ccccc2C(F)(F)F)ccc1-n1cnc(C)c1
Output: 1.38

Input: Look up log10 IC50 for this compound: COc1nc(-c2nc3n(n2)CCC[C@H]3c2ccccc2C(F)(F)F)ccc1-n1cnc(C)c1
Output: 1.45

Input: Look up log10 IC50 for this compound: COc1cc(-c2nc3n(n2)CCCC3c2ccc(F)cc2)ccc1-n1cnc(C)c1 (racemic)
Output: 2.34

Input: Look up log10 IC50 for this compound: COc1cc(-c2nc(C)n(-c3ccc(F)cc3)n2)ccc1-n1cnc(C)c1
Output: 2.89

Input: Look up log10 IC50 for this compound: COc1cc(-c2nc3n(n2)CCC[C@@H]3c2ccc(F)cc2C)ccc1-n1cnc(C)c1
Output: 2.65

Input: Look up log10 IC50 for this compound: COc1cc(C(=O)N[C@@H](C)c2ccc(F)cc2)ccc1-n1cnc(C)c1
Output: 3.41

Input: Look up log10 IC50 for this compound: COc1cc(-c2nc3n(n2)CCCC3c2ccc(F)cc2C)ccc1-n1cnc(C)c1 (racemic)
Output: 1.97

Values compiled from ChEMBL document CHEMBL2413065.
